assay: Selectivity ratio of IC50 for JAK1 over IC50 for JAK2
quantityName: Ratio IC50
One number for each entry.

Would you please look over these solved cases?
molecule	quantityName	assayResult
O=C(Cc1ccccc1)N1CCN(c2nc(Nc3nccs3)c3cccn3n2)CC1	Ratio IC50	2.6
Cc1cc(Nc2nc(N3CCN(C(=O)Cc4c(F)cc(Cl)cc4F)CC3)nn3cccc23)n[nH]1	Ratio IC50	3.8
Cc1cc(Nc2nc(N3CCN(C(=O)N(C)C)CC3)nn3cccc23)n[nH]1	Ratio IC50	5

Next compound, Ratio IC50 to be filled in.
Query: Any idea what Ratio IC50 was measured for `Cc1cc(Nc2nc(N3CCNCC3)nn3cccc23)n[nH]1` ?
Result: 16
